target: ARHGEF12, Q9NZN5-2; assay: holdup assay; set-up: key: below the threshold = too weak to quantify, mostly under pKd 3.1 to 4; details: plain residues with an end cap or a label only (N-terminal biotin on a linker: ado-ado)
Sequence (Q9NZN5 other isoform, or with tags, fused parts or gaps): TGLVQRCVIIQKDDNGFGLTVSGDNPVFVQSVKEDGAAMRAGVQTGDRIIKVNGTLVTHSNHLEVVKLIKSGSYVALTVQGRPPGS
Below, each entry is listed with its recorded pKd.
propertyName: pKd

binder="KKMPSIESDV [GRIN2A, Q12879]" propertyname=pKd value=3.69
binder="YLEPVLSSEL [ATP2A2, P16615;P16615-3]" propertyname=pKd value=5.38
binder="LPHGHSTTRV [NLGN4X, Q8N0W4]" propertyname=pKd value=3.98
binder="SARSRLSSNL [HCN2, Q9UL51]" propertyname=pKd value=4.66
binder="RKPKPSSSCC [RAB9A, P51151]" propertyname=pKd value=4.27
binder="RHGSCVETSL [TMEM151B, Q8IW70]" propertyname=pKd value=5.07
binder="LPHPHSTTRV [NLGN2, Q8NFZ4]" propertyname=pKd value=3.84

The measured values listed here are drawn from paper PMC9482650.
